Let's look at some compounds and their measured pIC50.
Molecular target: adenosine A3 receptor (Homo sapiens (Human), UniProt P0DMS8)
Sequence (P0DMS8 whole entry): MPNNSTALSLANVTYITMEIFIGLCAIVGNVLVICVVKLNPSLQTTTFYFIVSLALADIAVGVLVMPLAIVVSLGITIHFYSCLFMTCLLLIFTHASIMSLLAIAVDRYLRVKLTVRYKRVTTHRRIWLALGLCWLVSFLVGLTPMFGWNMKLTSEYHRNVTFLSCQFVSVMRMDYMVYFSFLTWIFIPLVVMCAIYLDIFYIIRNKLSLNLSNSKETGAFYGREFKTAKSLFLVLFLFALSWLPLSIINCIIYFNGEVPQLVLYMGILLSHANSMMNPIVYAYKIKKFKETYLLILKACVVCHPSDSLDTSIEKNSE
Assay: Adenosine receptor activity assay (Table 1), A3 cAMP
Type: biochemical
pIC50: −log10 of the molar value.

substance smiles	endpoint name	recorded measurement
COCC1CN(C(=O)c2nc(N[C@@H](C)c3ccccn3)nc3c(C)csc23)C1	pIC50	6.30 to 7.00
Cc1cc2nc(N[C@@H](C)c3cccnc3)nc(C(=O)N3CC(CO)C3)c2s1	pIC50	< 6.30
Cc1cc2nc(N[C@@H](C)c3cncc(F)c3)nc(C(=O)N3CC(NC(=O)c4ccoc4)C3)c2s1	pIC50	< 6.30

Now consider the entry below.
The recorded pIC50 for `Cc1cc2nc(N[C@@H](C)c3cncc(F)c3)nc(C(=O)N3CC(N)C3)c2s1` is < 6.30

* * *

Molecular target: adenosine A2B receptor (Homo sapiens (Human), UniProt P29275)
Sequence (P29275 whole entry): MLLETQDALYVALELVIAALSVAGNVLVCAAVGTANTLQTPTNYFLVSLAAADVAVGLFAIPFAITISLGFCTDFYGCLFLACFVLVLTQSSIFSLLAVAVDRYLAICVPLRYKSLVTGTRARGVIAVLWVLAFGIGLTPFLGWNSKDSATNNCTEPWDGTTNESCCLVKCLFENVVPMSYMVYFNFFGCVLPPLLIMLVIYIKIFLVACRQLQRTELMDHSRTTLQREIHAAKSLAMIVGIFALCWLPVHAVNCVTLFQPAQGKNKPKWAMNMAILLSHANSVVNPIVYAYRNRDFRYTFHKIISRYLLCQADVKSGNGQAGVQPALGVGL
Assay: Adenosine receptor activity assay (Table 1), A2B activity
Format: biochemical
Details: read-out: Ave A2B cAMP IC50
pIC50: −log10 of the molar value.
Let's look at some compounds and their measured pIC50.

Study these solved cases before continuing.
compound	recorded measurement
Cc1cc2nc(N[C@@H](C)c3cncc(F)c3)nc(C(=O)N3CC(C(N)=O)C3)c2s1 [Example Z504]	> 8.00
C[C@H](Nc1nc(C(=O)N2CC[C@@H](O)C2)c2sc(C(F)(F)F)cc2n1)c1ccccn1 [Example Z349]	7.30 to 8.00
O=C(NC1CC(O)C1)c1nc(NCc2cncc(F)c2)nc2ccsc12 (centres unmarked) [Example Z184]	7.30 to 8.00

The recorded pIC50 for Cc1cncc(CNc2nc(C(=O)N3CC[C@H](O)C3)c3sccc3n2)c1 [Example Z56] is 6.30 to 7.00

The recorded pIC50 for O=C(c1nc(NCc2cncc(F)c2)nc2ccsc12)N1CCC1 [Example Z61] is > 8.00

The recorded pIC50 for COC1CN(C(=O)c2nc(N[C@@H](C)c3ccccn3)nc3ccsc23)C1 [Example Z108] is 7.30 to 8.00

The recorded pIC50 for O=C(NC1CCC1)c1nc(NCc2cc(F)cc(F)c2)nc2ccsc12 [Example Z177] is 7.30 to 8.00

The recorded pIC50 for C[C@H](CO)NC(=O)c1nc(N[C@@H](C)c2ccccn2)nc2ccsc12 [Example Z182] is 7.00 to 7.30

* * *

Let's look at some compounds and their measured IC50.
Target: adenosine A2A receptor (Homo sapiens (Human), UniProt P29274)
Sequence (P29274 whole entry): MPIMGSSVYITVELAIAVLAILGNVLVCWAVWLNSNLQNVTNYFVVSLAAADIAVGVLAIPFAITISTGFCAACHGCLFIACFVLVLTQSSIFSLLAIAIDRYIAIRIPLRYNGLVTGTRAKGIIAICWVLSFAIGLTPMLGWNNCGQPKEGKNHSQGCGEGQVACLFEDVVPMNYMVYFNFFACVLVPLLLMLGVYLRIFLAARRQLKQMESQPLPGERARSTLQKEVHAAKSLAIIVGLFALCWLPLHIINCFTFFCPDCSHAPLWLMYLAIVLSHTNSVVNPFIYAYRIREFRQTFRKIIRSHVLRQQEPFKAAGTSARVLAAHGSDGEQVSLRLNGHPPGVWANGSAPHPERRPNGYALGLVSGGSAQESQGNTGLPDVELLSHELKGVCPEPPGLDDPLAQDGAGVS
Assay: Adenosine receptor activity assay (Table 1), A2A activity
Type: biochemical
Settings: read-out: Ave A2A cAMP IC50

Study these solved cases before continuing.
substance smiles	recorded measurement
C[C@H](Nc1nc(C(=O)N2CC[C@H](O)C2)c2sc(C(F)(F)F)cc2n1)c1cccnc1	> 500 nM
C[C@H](Nc1nc(C(=O)N2CCCC2)c2sc(C(F)(F)F)cc2n1)c1cccnc1	> 500 nM
Cc1cc2nc(N[C@@H](C)c3ccccn3)nc(C(=O)NCc3ccccn3)c2s1	10 to 50 nM
C[C@H](Nc1nc(C(=O)N2CCC2)c2sccc2n1)c1ccccn1	50 to 100 nM
C[C@H](Nc1nc(C(=O)NCCS(C)(=O)=O)c2sccc2n1)c1ccccn1	100 to 500 nM
CC(=O)N[C@@H]1CCN(C(=O)c2nc(N[C@@H](C)c3cncc(F)c3)nc3cc(C)sc23)C1	> 500 nM
Cc1cc2nc(N[C@@H](C)c3cncc(F)c3)nc(C(=O)N3CC(NC(=O)CNC(=O)c4ccccc4)C3)c2s1	> 500 nM
COc1cccc(CNC(=O)c2nc(N[C@@H](C)c3cccnc3)nc3ccsc23)n1	50 to 100 nM
C[C@H](Nc1nc(C(=O)N2CC[C@H](NC(=O)OCc3ccccc3)C2)c2sccc2n1)c1cncc(F)c1	> 500 nM
COc1ccc(CNC(=O)c2nc(N[C@@H](C)c3ccccn3)nc3ccsc23)cn1	50 to 100 nM

The recorded IC50 for `C[C@H](Nc1nc(C(=O)N2CC[C@H](O)C2)c2sccc2n1)c1cccnc1` is > 500 nM

The recorded IC50 for `C[C@H](Nc1nc(C(=O)N2CCN(C(=O)N(C)C)C2)c2sccc2n1)c1cncc(F)c1` is 100 to 500 nM

The recorded IC50 for `C[C@H](Nc1nc(C(=O)N2CC[C@H](F)C2)c2sc(N)cc2n1)c1cccnc1` is 100 to 500 nM

The recorded IC50 for `O=C(c1nc(NCc2ccccc2)nc2ccsc12)N1CC[C@H](O)C1` is > 500 nM

The recorded IC50 for `CC(C)(C)OC(=O)N[C@@H]1CCN(C(=O)c2nc(NCc3cncc(F)c3)nc3ccsc23)C1` is 100 to 500 nM

The recorded IC50 for `C[C@H](Nc1nc(C(=O)NCCO)c2sccc2n1)c1cncc(Cl)c1` is > 500 nM
